Values were extracted from the supplement of paper PMC12042874.

- TEST_METHOD_NOTES: amyloid nucleation score (Sup35N fusion, yeast selection) (log enrichment); library NNK2; higher = more nucleation; inactive = no reads after selection;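 note: zero at mode of non-aggregating sequences after 7 days selection at 30°C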
Overview of reported amyloid nucleation score across a group of substances:
RECORDED_METRIC: amyloid nucleation score

1. VCVFTDLGCRY ... -0.493
2. YFMSRRE ... -0.04
3. MSVLRSG ... 0.526
4. RVKYLDDCQYMLFRWCRMFT ... 0.209
5. AICMAY ... 1.27
6. HYPQYCFFARKIFITCGYME ... 5.22
7. FDLNSTVWIRCGGLILRLKP ... 0.01
